Data origin, for the record: ChEMBL document CHEMBL4483862

- Tested on: Plasmodium berghei
- protocol.text: Luciferase/luciferin-expressing antifolate-resistant parasites were used to infect a culture of HepG2 cells that were pre-incubated with compounds. Infected hepatocytes emit light due to the luciferase reaction. Assay results are presented as the percent inhibition of light emission compared to control. […]
- Format: functional
- recorded.conditions: sporozoite, FFLUC_HILL_SLOPE 12.1, FFLUC_R_SQUARED 0.679, read-out: LUCIFERASE INFECTION ASSAY - IC50
measured.attribute: IC50

Q: Record request: IC50 value, item CC1=C(C(=O)OCc2ccccc2)C(c2ccccc2OC(C)C)CC(=O)N1 (stereo unspecified)
Ans: > 8.7 µM
